- Target system: HLA-A*03:01
- Assay name: IEDB peptide-MHC binding, purified MHC/competitive/radioactivity; filed as Kd, often an IC50 or EC50 that approximates it; bounds were set here for any values at or beyond the usual limits of such assays
- Cond: source organism: Vaccinia virus WR
# Kd per entry
Write down the numeric answer in nM and omit the unit.

INSERT INTO assay_data (sequence_content, target_system, measurement_unit, value_observed) VALUES
  ('KVVDTFISY', 'HLA-A*03:01', 'nM', 7.9),
  ('DSMDVLAEK', 'HLA-A*03:01', 'nM', 404),
  ('STGESSILR', 'HLA-A*03:01', 'nM', 310),
  ('TVNICIFYDR', 'HLA-A*03:01', 'nM', 414);

Switching to the query record.
Ask: Given `VALYRRIQR` , respond with its Kd.
Reply: 16100
